- Test system: Escherichia coli
- test: Binding affinity to Escherichia coli pBR322 DNA assessed as decrease in mobility of form 1 DNA at high concentration after 24 hr by agarose gel electrophoresis
The source made the active and inactive calls. The rule behind the calls is not given here.
measurement label: Activity

| smiles text | Activity |
| --- | --- |
| Cn1nnnc1Sc1ncnc2[nH]cnc12 | Active |
| CCOC(=O)Cn1cnc2c(Nc3nnn[nH]3)ncnc21 | Active |
| c1ccc(Cn2cnc3c(Nc4nnn[nH]4)ncnc32)cc1 | Active |
| CCCn1cnc2c(Sc3nnnn3C)ncnc21 | Active |

Challenge: Activity of `CC(C)n1cnc2c(Sc3nnnn3C)ncnc21` on Escherichia coli?
Response given: Active

Challenge: What about this compound? `c1nc(Nc2nnn[nH]2)c2ncn(CC3CCC3)c2n1`
Response given: Active
